Target: dopamine D1 receptor (Cyprinus carpio)
Test: Concentration required to inhibit 50% dopamine receptor D1 activity using cell free homogenate of carp retina
Measured Parameter: EC50 (µM)

> print(dat)
                                   compound   u  endpoint.value
1  NC[C@@H]1OC(c2ccc(Br)cc2)Cc2c1ccc(O)c2O (stereo partly specified)  µM           0.001
2  COc1cccc(C2Cc3c(ccc(O)c3O)[C@H](CN)O2)c1 (stereo partly specified)  µM          0.0064
3  NC[C@@H]1OC(Cc2ccccc2)Cc2c1ccc(O)c2O (stereo partly specified)  µM           0.034

1 = NC[C@@H]1OC(COc2ccccc2)Cc2c1ccc(O)c2O (stereo partly specified)
2 = CC[C@@H]1Cc2c(ccc(O)c2O)[C@H](CN)O1
3 = NC[C@@H]1OC(CC2CCCC2)Cc2c1ccc(O)c2O (stereo partly specified)
Please order the records by their reported EC50, lowest number first. Write the labels, ordered according to the request. 3, 1, 2
(3: 0.0067 µM, 1: 0.024 µM, 2: 0.142 µM)
